- Tested on: HBV
- TEST_PROTOCOL: anti-HBV activity in stable transfected HepG2.2.15 cell line, HBV DNA from secreted virions by realtime PCR
- Type: cell-based, Hepatitis B virus
- MEASUREMENT_CONDITIONS: Hepatitis B virus, HepG2.2.15, 144 h, HepG2.2.15 cells, 6 days of treatment, secreted virion HBV DNA; read-out: HBV-HepG2 2.15 EC50
EXPERIMENTAL_ENDPOINT: EC50

Would you be so kind as to report EC50 for each listed record?
1. COC(=O)C1=C(CN2CCOCC2)NC(c2ccccn2)=NC12CCc1ccc(F)cc12 (centres unmarked)
2. CCOC(=O)C1=C(CN2CCOCC2)NC(c2ccccn2)=NC12CCC(C)(C)c1ccccc12 (centres unmarked)
3. COC(=O)C1=C(C)NC(c2ncc(F)cc2C)=NC1(C)c1ccc(F)c(F)c1 (centres unmarked)
4. COC(=O)C1=C(C)NC(c2ncc(F)cc2F)=NC12c1ccccc1OC2(F)F (centres unmarked)
5. CCOC(=O)C1=C(C)NC(c2ccccn2)=NC1(c1ccc(F)cc1)C(F)(F)F (centres unmarked)
6. COC(=O)C1=C(C)NC(c2ncc(F)cc2C)=NC12CCCc1cc(F)ccc12 (centres unmarked)
7. COC(=O)C1=C(C)NC(c2ncc(F)cc2F)=NC1(C)c1ccc(F)c(F)c1 (centres unmarked) [132b •MsOH]

["0.954 µM", "35.2 µM", "27.5 µM", "98.4 µM", "> 100 µM", "19.9 µM", "0.694 µM"]

Looking for the measured EC50 of COC(=O)C1=C(CN2CCOCC2)NC(c2ccccn2)=NC1(C)c1ccccc1Cl (centres unmarked) , can you help? 9.34 µM

* * *

What CC50 at 6 days was measured for each of the following?
- TEST_PROTOCOL: Cytotoxicity in HepG2 cells using CellTiter-Blue, same incubation period as HepG2.2.15 assay
- Assay type: cell-based
- MEASUREMENT_CONDITIONS: human, HepG2 cells, 6 days, CellTiter-Blue; read-out: HepG2 6 days CC50

MOLECULE	CC50 at 6 days
CCOC(=O)C1=C(C)NC(c2ccccn2)=NC1(C)c1ccc(F)cc1 (centres unmarked) [Compound 6]	> 25 µM

Each of the following entries comes with a recorded value; kindly state CC50 at 6 days for each.
1. N#CC1=C(CN2CCOCC2)NC(c2ccccn2)=NC12CCCc1cc(F)ccc12 (single isomer, unassigned) [Compound 60a]
2. COC(=O)C1=C(CN2CCOCC2)NC(c2ncc(F)cc2F)=NC1(C)c1cc(F)cc(Cl)c1 (centres unmarked) [Compound 27]
3. N#CC1=C(CN2CCOCC2)NC(c2ccccn2)=NC12CCCc1cc(F)ccc12 (racemic) [Compound 60]
4. N#CC1=C(CN2CCOCC2)NC(c2ccccn2)=NC12CCCc1ccccc12 (centres unmarked) [Compound 61]
5. CCOC(=O)C1=C(C#N)NC(c2ccccn2)=NC1(C)c1ccc(F)cc1 (centres unmarked) [Compound 5]

["> 100 µM", "> 100 µM", "> 100 µM", "> 100 µM", "> 100 µM"]

// batch mode: one CC50 at 6 days value per listed entry
1. CCOC(=O)C1=C(CN2CCOCC2)NC(c2ccccn2)=NC1(C)c1ccc(F)cc1 (racemic) [Compound 4]
2. CCOC(=O)C1=C(CN2CCOCC2)NC(c2ccccn2)=NC1(C)c1ccc(F)c(Cl)c1 (centres unmarked) [Compound 18]

1. 51.1 µM
2. 36.5 µM

* * *

- TEST_PROTOCOL: Cytotoxicity in HepG2 cells incubated 4 days, Resazurin assay
- MEASUREMENT_CONDITIONS: human, HepG2 4 days CC50, HepG2 cells
EXPERIMENTAL_ENDPOINT: CC50 at 4 days

COMPOUND	MEASURED
COC(=O)C1=C(C)NC(SC)=NC1(C)c1ccc(F)c(F)c1 (single isomer, unassigned) [Compound 160a]	> 25 µM
COC(=O)C1=C(C)NC(SC)=NC1(C)c1ccc(F)c(F)c1 (racemic) [Compound 160]	> 25 µM
COC/C=C/C1=C(C(=O)OC)C(C)(c2ccc(F)c(F)c2)N=C(c2ncc(F)cc2F)N1 (stereo not shown)	> 25 µM

Consider the following items and state reported CC50 at 4 days for each.
1. COC(=O)C1=C(CN2CCOCC2)NC(c2ncc(F)cc2F)=NC1(C)c1cc(F)cc(Cl)c1 (stereo not shown)
2. COC(=O)C1=C(C)NC(c2nccn2C)=NC1(C)c1ccc(F)c(F)c1 (stereo not shown)
3. CCOC(=O)C1=C(CN2CCSCC2)NC(c2ccccn2)=NC1(C)c1ccc(F)cc1 (stereo not shown)

1. > 25 µM
2. > 25 µM
3. > 50 µM

* * *

Provide the recorded CC50 at 4 days for the entries that follow.
- TEST_PROTOCOL: in vitro
- MEASUREMENT_CONDITIONS: human, HepG2 4 days CC50

Completed entries (count: 3):
COMPOUND	CC50 at 4 days
COC(=O)C1=C(C)NC(c2nccs2)=NC12C(F)=Cc1c2ccc(F)c1F (single isomer, unassigned) [Compound 174a]	> 25 µM
COC(=O)C1=C(C)NC(c2ccccn2)=NC12CCc1ccccc12 (stereo not shown)	> 50 µM
COC(=O)C1=C(CN2CCOCC2)NC(c2ccccn2)=NC12CCCc1cc(F)ccc12 (stereo not shown)	> 100 µM

Now consider the entry below.
Quick check: CC50 at 4 days of COC(=O)C1=C(CN2CCOCC2)NC(c2ncc(F)cc2F)=NC12CCc1c2ccc(F)c1F (stereo not shown) ? > 50 µM

* * *

- System: HepG2 cells
- TEST_PROTOCOL: Cytotoxicity in HepG2 cells incubated 4 days, Resazurin assay
- MEASUREMENT_CONDITIONS: read-out: HepG2 4 days CC50
For each of the compounds below, state its CC50.

Completed entries (count: 8):
COMPOUND	CC50
COC(=O)C1=C(C)NC(c2ncc(F)cc2F)=NC1(C)c1ccc(Cl)c(F)c1 (stereo not drawn)	> 25 µM
COC(=O)C1=C(C)NC(c2ncccn2)=NC1(C)c1ccc(F)c(F)c1 (single isomer, unassigned) [Compound 159b]	> 25 µM
COC(=O)C1=C(C)NC(c2ncc(F)cc2F)=NC1(c1ccc(F)c(F)c1)C(F)F (single isomer, unassigned) [Compound 151b]	> 25 µM
COC(=O)C1=C(C)NC(SC)=NC1(C)c1ccc(F)c(F)c1 (single isomer, unassigned) [Compound 160b]	> 25 µM
CCOC(=O)C1=C(CN2CCOCC2)NC(c2ccccn2)=NC1(C)c1ccc(F)cc1 (racemic)	> 50 µM
COC(=O)C1=C(C#N)NC(c2ncc(F)cc2F)=NC1(C)c1ccc(F)c(F)c1 (single isomer, unassigned) [Compound 163b]	> 25 µM
COC(=O)C1=C(C)NC(c2ncccc2F)=NC1(C)c1ccc(F)c(F)c1 (single isomer, unassigned) [Compound 158b]	> 25 µM
COC(=O)C1=C(C)NC(c2ncc(F)cc2F)=NC1(C)c1ccc(F)c(F)c1 (stereo not drawn) [132b •MsOH]	> 25 µM

# input for lookup
I have this compound here, N#CC1=C(CN2CCOCC2)NC(c2ccccn2)=NC12CCCc1cc(F)ccc12 (single isomer, unassigned) [Compound 60b] , and I need its recorded CC50. > 100 µM

* * *

- Test system: HepG2 cells
- TEST_PROTOCOL: Cytotoxicity in HepG2 cells using CellTiter-Blue, same incubation period as HepG2.2.15 assay
- Format: cell-based
- MEASUREMENT_CONDITIONS: human, 6 days
Give CC50 for every item shown.

Solved cases below.
MOLECULE	CC50
COC(=O)C1=C(C)NC(c2ncc(F)cc2F)=NC12CC(C)(C)c1ccccc12 (single isomer, unassigned) [Compound 134b]	35.8 µM
COC(=O)C1=C(CN2CCOCC2)NC(c2ccccn2)=NC12CCc1c(F)cccc12 (single isomer, unassigned) [Compound 66b]	> 100 µM
COC(=O)C1=C(CN2CCOCC2)NC(c2ccccn2)=NC12CCc1ccc(F)cc12 (single isomer, unassigned) [Compound 96b]	> 100 µM

Report CC50 for COC(=O)C1=C(C)NC(c2ncc(F)cc2F)=NC12c1ccccc1OC2(F)F (single isomer, unassigned) [Compound 106b] please. > 100 µM

* * *

- TEST_PROTOCOL: Cytotoxicity in HepG2 cells incubated 4 days, Resazurin assay
- MEASUREMENT_CONDITIONS: human, HepG2 4 days CC50, HepG2 cells
EXPERIMENTAL_ENDPOINT: CC50 at 4 days

Here is how some compounds turned out for CC50 at 4 days.
COMPOUND	CC50 at 4 days
COC(=O)C1=C(C)NC(c2ncccc2F)=NC1(C)c1ccc(F)c(F)c1 (single isomer, unassigned) [Compound 158a]	> 25 µM
C=CC1=C(C(=O)OC)C(C)(c2ccc(F)c(F)c2)N=C(c2ncc(F)cc2F)N1 (stereo not shown)	> 25 µM
COC(=O)C1=C(C)NC(c2ncc(F)cc2F)=NC1(C)c1ccc(F)c(Cl)c1 (stereo not shown)	17.2 µM
COC(=O)C1=C(C)NC(c2ncc(F)cc2F)=NC1(c1ccc(F)c(F)c1)C(F)F (single isomer, unassigned) [Compound 151a]	> 25 µM

Batch lookup, CC50 at 4 days per entry.
1. N#CC1=C(CN2CCOCC2)NC(c2ccccn2)=NC12CCc1ccccc12 (stereo not shown)
2. COC(=O)C1=C(C)NC(c2ncc(F)cc2F)=NC1(C)c1ccc(F)c(F)c1 (single isomer, unassigned) [Compound 132a]
3. COC(=O)C1=C(CN2CCOCC2)NC(c2ccccn2)=NC1(C)c1ccc(F)cc1 (stereo not shown)

> 100 µM
21.1 µM
> 50 µM

Quick batch: CC50 at 4 days for everything below.
1. COC(=O)C1=C(CN2CCOCC2)NC(c2ccccn2)=NC1(C)c1ccccc1Cl (stereo not shown)
2. COC(=O)C1=C(C)NC(c2ncccc2F)=NC1(C)c1ccc(F)c(F)c1 (racemic) [Compound 158]
3. CCOC(=O)C1=C(CN2CCOCC2)NC(c2ncc(F)cc2F)=NC1(C)c1ccc(F)cc1 (stereo not shown)
4. COC(=O)C1=C(C)NC(c2ncccn2)=NC1(C)c1ccc(F)c(F)c1 (single isomer, unassigned) [Compound 159a]

1. > 100 µM
2. > 25 µM
3. > 25 µM
4. > 25 µM

Quick batch: CC50 at 4 days for everything below.
1. CCOC(=O)C1=C(CN2CCOCC2)NC(c2ccccn2)=NC1(C)c1ccc(F)cc1Cl (stereo not shown)
2. COC(=O)C1=C(C)NC(c2ccc(F)cn2)=NC1(C)c1ccc(F)c(F)c1 (stereo not shown)
3. COC(=O)C1=C(C)NC(c2ccccn2)=NC1(C)c1cccc(F)c1 (stereo not shown)
4. CC1(C)CCC2(N=C(c3ccccn3)NC(CN3CCOCC3)=C2C#N)c2ccccc21 (stereo not shown)

1. > 25 µM
2. > 25 µM
3. > 50 µM
4. > 25 µM

Name the recorded CC50 at 4 days for CCOC(=O)C1=C(CN2CCOCC2)NC(c2ccccn2)=NC1(C)c1ccc(F)cc1F (stereo not shown) . > 50 µM

Reference source for all entries: patent US9233933B2
